# experimental-system: Metabotropic glutamate receptor 8 (Rattus norvegicus)
# method-summary: mGluR8 Gi/Go-coupled signaling modulation – cell-based, rat, thallium flux, HTS, primary screen (AID 488969)
# setup-conditions: HEK293 rat mGluR8, GIRK thallium flux, FluoZin2; at 10 µM; stronger effect = higher value; submaximal glutamate (EC20) added with thallium
Over roughly 110,000 compounds, “z-score” has its median near -0.1; the highest 2% begin near 2. Many of the other results were omitted from the sample, so the highest values are more common in it than they were.
Decide by z-score: equal to or exceeding 0.7 means MET, less means NOT MET.

Would you please look over these solved cases?
{"line-notation": "COc1ccc(-c2nnc(NC(=O)C3=COCCO3)o2)cc1", "category-label": "MET"}
{"line-notation": "Cc1cccc(C)c1Oc1nc(-c2ccccc2)ncc1S(=O)(=O)c1ccccc1", "category-label": "NOT MET"}
{"line-notation": "Cc1ccc(Cn2cc(S(=O)(=O)c3ccc(Cl)cc3)c(=O)c3cc(F)ccc32)cc1", "category-label": "NOT MET"}

Query: Confirm if z-score reported for the compound O=C(Nc1nnc(-c2ccc(Cl)cc2)o1)C1=COCCO1 is 0.7 or above.
Reply: MET

Query: Confirm if z-score reported for the compound CCCOc1ccc(C2=NNC(c3cccs3)=Nc3ccc(OC)cc32)cc1 is 0.7 or above.
Reply: NOT MET

Query: Confirm if z-score reported for the compound CCOc1ccc(C2=NNC(c3cccs3)=Nc3ccc(OCC)cc32)cc1 is 0.7 or above.
Reply: NOT MET

====

# experimental-system: Metabotropic glutamate receptor 8 (Rattus norvegicus) (UniProt P70579)
# Sequence (P70579 whole entry, looked up): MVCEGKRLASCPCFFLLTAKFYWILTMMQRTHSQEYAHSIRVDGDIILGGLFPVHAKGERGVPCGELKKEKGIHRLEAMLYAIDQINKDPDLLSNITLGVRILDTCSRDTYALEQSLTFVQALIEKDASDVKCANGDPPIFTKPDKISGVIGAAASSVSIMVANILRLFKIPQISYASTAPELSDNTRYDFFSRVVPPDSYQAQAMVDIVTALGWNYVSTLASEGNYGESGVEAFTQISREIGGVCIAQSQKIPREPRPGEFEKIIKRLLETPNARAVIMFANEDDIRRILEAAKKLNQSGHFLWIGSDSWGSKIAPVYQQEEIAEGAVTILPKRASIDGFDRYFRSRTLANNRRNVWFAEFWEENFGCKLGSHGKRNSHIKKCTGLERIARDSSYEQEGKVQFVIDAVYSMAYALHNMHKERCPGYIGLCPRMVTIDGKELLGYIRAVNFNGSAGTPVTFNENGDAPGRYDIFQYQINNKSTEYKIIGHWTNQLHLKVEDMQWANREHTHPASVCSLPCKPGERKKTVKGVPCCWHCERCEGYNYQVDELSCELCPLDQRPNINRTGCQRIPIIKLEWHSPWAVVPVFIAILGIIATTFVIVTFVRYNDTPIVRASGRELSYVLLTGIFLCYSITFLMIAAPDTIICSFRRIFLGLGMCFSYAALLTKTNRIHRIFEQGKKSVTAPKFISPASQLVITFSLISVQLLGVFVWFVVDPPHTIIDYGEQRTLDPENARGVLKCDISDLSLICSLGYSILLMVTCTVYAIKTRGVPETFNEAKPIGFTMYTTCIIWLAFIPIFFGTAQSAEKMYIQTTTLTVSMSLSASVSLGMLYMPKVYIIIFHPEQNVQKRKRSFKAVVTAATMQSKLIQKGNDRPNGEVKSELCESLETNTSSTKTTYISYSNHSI
# method-summary: mGluR8 Gi/Go-coupled signaling modulation – cell-based, rat, thallium flux, HTS, primary screen (AID 488969)
# setup-conditions: HEK293 rat mGluR8, GIRK (G protein-gated inwardly rectifying potassium channel) thallium flux, FluoZin2; at 10 µM; stronger effect = higher value; submaximal glutamate (EC20) added with thallium
Whole data set: some 110,000 compounds, median “z-score” near -0.1, cut for the highest 2% near 2. This is one part of a sample in which the highest values are shown more often than they occur.
metric: z-score
Returns: the value as a bare number; no unit string appended.

Entry CC(C)(C)c1ccc(CSc2nnc(-c3ccccn3)n2Cc2ccco2)cc1 ; assay system Metabotropic glutamate receptor 8 (Rattus norvegicus) (UniProt P70579); z-score recorded at -0.295

Entry O=C(NCCCN1CCCC1=O)c1ccccc1NS(=O)(=O)c1ccc(Br)cc1 ; assay system Metabotropic glutamate receptor 8 (Rattus norvegicus) (UniProt P70579); z-score recorded at -0.938

Entry CC1=CC(C)(C)Nc2ccc(OC(=O)C(Cc3ccccc3)N3C(=O)c4ccccc4C3=O)cc21 (centres undefined) ; assay system Metabotropic glutamate receptor 8 (Rattus norvegicus) (UniProt P70579); z-score recorded at 1.05

Entry CCOC(=O)c1c(C)oc2ccc(OCC(=O)C(C)(C)C)cc12 ; assay system Metabotropic glutamate receptor 8 (Rattus norvegicus) (UniProt P70579); z-score recorded at -1.03

Entry Cc1cc2cc(OCC(=O)O)ccc2n1C ; assay system Metabotropic glutamate receptor 8 (Rattus norvegicus) (UniProt P70579); z-score recorded at 0.494

Entry Cc1ccc(S(=O)(=O)N(CCC(=O)O)Cc2ccc(Cl)cc2)cc1 ; assay system Metabotropic glutamate receptor 8 (Rattus norvegicus) (UniProt P70579); z-score recorded at -0.125

Entry CC1=CCC(C(=O)O)C(C(=O)Nc2nc3ccc(S(C)(=O)=O)cc3s2)C1 (centres undefined) ; assay system Metabotropic glutamate receptor 8 (Rattus norvegicus) (UniProt P70579); z-score recorded at 0.387
